Please find below IC50 measurements for UniProtKB Q14790, combined from several publications.
measure: IC50 (µM)

• O=C1C[C@H](NC(=O)[C@@H]2COC[C@@H]3C/C=C\C[C@H](NC(=O)c4ccccc4C(F)(F)F)C(=O)N32)C(O)O1 (some centres undefined) = 0.67
• CC(C)(C)[C@@H](NC(=O)c1ccc(N)c(Cl)c1)C(=O)N1CCC[C@H]1C(=O)N[C@H](/C=C/S(C)(=O)=O)CC(=O)O = 12.9

[a] O=C1C[C@H](NC(=O)C2(C(=O)NNC(=O)c3cccc4ccccc34)CCC2)C(O)O1 (some centres undefined)
[b] COc1cccc(C(=O)NCC2=CC[C@H](NC(=O)c3ccc4ccccc4c3)C(=O)N(CC(=O)N[C@H]3CC(=O)OC3O)C2)c1 (some centres undefined)
[c] O=C(CN1CC=CC[C@H](NC(=O)c2cccc(C(F)(F)F)c2)C1=O)N[C@H]1CC(=O)OC1O (some centres undefined)
[d] CC(C)[C@H](NC(=O)c1cc(Br)cc(Br)c1)C(=O)N[C@@H](CC(=O)O)C(=O)CSCc1ccccc1
Put the items in sequence by IC50, from largest down. # output: labels, in the requested order
d, c, b, a
(d: 8.7 µM, c: 1.96 µM, b: 0.448 µM, a: 0.13 µM)

[A] CS(=O)(=O)N1C[C@@H]2CCCC[C@H](NC(=O)c3ccccc3)C(=O)N2[C@H](C(=O)N[C@H]2CC(=O)OC2O)C1 (some centres undefined)
[B] COc1cccc(CC(=O)N[C@H](C(=O)N[C@@H](CC(=O)O)C(=O)CSCc2ccccc2)C(C)C)c1
Select the item whose IC50 value is smaller, choosing between A and B . Pick one; state its label.
A

[1] O=C(O)CCC(=O)Nc1ccc2c(c1)C(=O)C(=O)NC2=O
[2] O=C1C[C@H](NC(=O)C2(C(=O)NNC(=O)c3ccc4ccccc4c3)CCC2)C(O)O1 (some centres undefined)
Select the item whose IC50 value is smaller, choosing between 1 and 2 . API: response body contains the label of the selected item.
1

[1] COc1cccc(OC)c1C(=O)NNC(=O)C1(C(=O)N[C@H]2CC(=O)OC2O)CCCCC1 (some centres undefined)
[2] CCOc1ccc(/C=C/C(=O)OC)cc1CC(=O)N[C@H](C(=O)N[C@@H](CC(=O)O)C(=O)CSCc1c(F)cccc1Cl)C(C)C
Identify the entry with the larger IC50. Options: 1 and 2 Your answer should be the label of the entry you select.
2
(2: 3.85 µM, 1: 0.3 µM)

[a] O=C(CN1CC(CO)=CC[C@H](NC(=O)c2ccc3ccccc3c2)C1=O)N[C@H]1CC(=O)OC1O (some centres undefined)
[b] O=C1C[C@H](NC(=O)[C@@H]2CCc3nc4cc(-c5ccc(Cl)cc5)nc-4c(O)n32)C(O)O1 (some centres undefined)
Min IC50? a | b Answer with the label corresponding to your selection.
a
(a: 2.11 µM, b: 4.81 µM)
